Origin of values: PubChem BioAssay (EPA / NIEHS)

- Read-out: Lipase C (LIPC), LIPC (gene 3990)
- protocol.text: LTEA_HepaRG_LIPC: Life Technologies and Expression Analysis (LTEA) Assay for Lipase C (LIPC) using HepaRG (AID 2283514)
- experimental.parameters: mRNA level, 48 h; actives raise or lower the signal
Activity calls are given as the source filed them. Rule for the calls: active = hit-call score of the fitted dose curve at least 0.9, where 1 is the maximum; inactive = score below 0.9.
Your response should consist of one outcome taken from 1 for active, 0 for inactive

Recorded results for 4 compounds are shown here.
{"compound": "Cc1ccc(O)cc1C", "label.value": 0}
{"compound": "CCOC(=O)c1ccccc1C(=O)OCC", "label.value": 0}
{"compound": "[N-]=[N+]=[N-]", "label.value": 1}
{"compound": "c1ccc(OP(Oc2ccccc2)Oc2ccccc2)cc1", "label.value": 0}

Could you now consider this next compound?
Dear all, I need the recorded test outcome for CCOP(=S)(Oc1ccc([N+](=O)[O-])cc1)c1ccccc1 (centres undefined) , thank you.
0

====

- Read-out: CYP2C8 (gene 1558)
- protocol.text: LTEA_HepaRG_CYP2C8: Life Technologies and Expression Analysis (LTEA) Assay for CYP2C8 using HepaRG (AID 2283483)
- experimental.parameters: mRNA level, 48 h; actives raise or lower the signal
Activity calls are given as the source filed them. The calls were made as follows: active = hit-call score of the fitted dose curve at least 0.9, where 1 is the maximum; inactive = score below 0.9.
Respond using exactly one of the listed classes: active, inactive

{"compound": "Cc1ccc([N+](=O)[O-])cc1C", "label.value": "inactive"}
{"compound": "OCC1CO1 (centres undefined)", "label.value": "inactive"}
{"compound": "Cc1ccc(N)cc1N", "label.value": "inactive"}
{"compound": "CCN(CC)c1ccccc1", "label.value": "inactive"}
{"compound": "CC(C)(C)OOC(C)(C)C", "label.value": "inactive"}

Hi, sorry to bother you, what did the test record for O=[N+]([O-])c1ccccc1 ?
inactive

Check the results log: what was the call for CC(Cc1ccc(OCC(=O)O)cc1)NCC(O)c1csc(C(F)(F)F)n1 (centres undefined) ?
inactive

====

- Read-out: E-selectin (Homo sapiens) (UniProt P16581)
- Sequence (P16581 whole entry, looked up): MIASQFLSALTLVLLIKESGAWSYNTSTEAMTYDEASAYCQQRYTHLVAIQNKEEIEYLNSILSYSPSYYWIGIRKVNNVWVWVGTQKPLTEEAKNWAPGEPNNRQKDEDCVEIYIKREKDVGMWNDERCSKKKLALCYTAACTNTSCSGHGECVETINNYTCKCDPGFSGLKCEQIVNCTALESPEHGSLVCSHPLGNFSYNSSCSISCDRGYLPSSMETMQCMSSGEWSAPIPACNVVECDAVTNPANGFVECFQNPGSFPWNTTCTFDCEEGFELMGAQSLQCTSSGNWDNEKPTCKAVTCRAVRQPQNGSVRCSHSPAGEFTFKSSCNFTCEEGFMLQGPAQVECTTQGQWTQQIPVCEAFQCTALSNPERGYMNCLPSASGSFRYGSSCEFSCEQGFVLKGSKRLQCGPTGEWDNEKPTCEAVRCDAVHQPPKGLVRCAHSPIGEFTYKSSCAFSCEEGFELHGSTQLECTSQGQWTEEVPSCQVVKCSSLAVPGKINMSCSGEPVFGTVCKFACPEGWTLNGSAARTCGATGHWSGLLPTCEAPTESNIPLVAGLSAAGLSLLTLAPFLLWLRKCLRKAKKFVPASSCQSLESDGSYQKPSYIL
- protocol.text: BSK_SAg_Eselectin: BioMAP Diversity Plus: SAg Assay for Eselectin Biomarker Activity (AID 2283091)
- experimental.parameters: primary human HUVEC with PBMC; actives raise or lower the signal
Active and inactive are the calls of the source. Rule for the calls: active = hit-call score of the fitted dose curve at least 0.9, where 1 is the maximum; inactive = score below 0.9.
Log the outcome using a class from YES (active), NO (inactive)

Here are 3 compounds together with their reported answers.
{"compound": "CC(C)(C)OOC(C)(C)C", "label.value": "NO"}
{"compound": "O=[N+]([O-])c1ccccc1", "label.value": "NO"}
{"compound": "COP(=O)(O)OC", "label.value": "YES"}

Tell me the assay call for CCCCC(CC)COP(=O)(Oc1ccccc1)Oc1ccccc1 (configuration not stated) please.
YES

Which result was noted for this compound in the test: O=C(O)C(F)(F)OC(F)(F)C(F)(F)OC(F)(F)F
NO

For this compound, state the assay outcome: c1ccc2c(c1)sc1ccccc12
NO

So what was the verdict on Cc1cccc(N)c1 in this test?
NO

In this assay, the call recorded for C=CC(=O)OCC(CC)(COC(=O)C=C)COC(=O)C=C was what?
YES

====

- protocol.text: BSK_3C_TissueFactor: BioMAP Diversity Plus: 3C Assay for Tissue Factor Biomarker Activity (AID 2282997)
- experimental.parameters: BioMAP 3C HUVEC, tissue factor biomarker readout; actives raise or lower the signal
Calls of active or inactive are those of the source. The calls were made as follows: active = hit-call score of the fitted dose curve at least 0.9, where 1 is the maximum; inactive = score below 0.9.
Select the matching outcome among active, inactive

Below, 3 compounds whose answers are already recorded.
{"compound": "N#Cc1cc([N+](=O)[O-])ccc1N", "label.value": "active"}
{"compound": "CCOP(=S)(S)OCC", "label.value": "inactive"}
{"compound": "O=S1(=O)OCC2C(CO1)C1(Cl)C(Cl)=C(Cl)C2(Cl)C1(Cl)Cl (centres undefined)", "label.value": "inactive"}

// param item: CCCCc1ccccc1 ; yields the recorded call
inactive
